Below: a set of entries, each annotated with reported survival.
Test system: DeltatarO mutant
EXPERIMENT: S. aureus survival, RN4220 and DeltatarO strains – OD600, teichoic acid synthesis inhibitors, primary screen (AID 463173)
CONDITIONS: S. aureus RN4220 wild type/DeltatarO growth, OD600, 18 h, stronger effect = lower value, screened at 18.75 µg/mL (by protocol)
Among all 52,000 compounds or so, about 4,300 (8.3%) were called active. The list comes from a sample in which actives are over-represented; it also holds close analogues and randomly drawn compounds.

{"MOLECULE": "COC(=O)c1cc2sc(C)cc2n1CC(=O)Nc1ccc(C)c(C)c1", "TESTED_TARGET": "DeltatarO mutant", "survival (%)": 64}
{"MOLECULE": "Cc1ccc(Cn2c(CO)cnc2SCc2ccc(F)cc2)cc1", "TESTED_TARGET": "DeltatarO mutant", "survival (%)": 109}
{"MOLECULE": "COCCNC(=O)Cn1c(=O)n(-c2ccc(C)c(C)c2)c(=O)c2c3c(sc21)CCCCC3", "TESTED_TARGET": "DeltatarO mutant", "survival (%)": 86}
{"MOLECULE": "Cc1cccc(C(=O)Nc2ccccc2OCc2cc(=O)n3cc(C)ccc3n2)c1", "TESTED_TARGET": "DeltatarO mutant", "survival (%)": 60}
{"MOLECULE": "CN(C)c1ccc(NC(=O)CSC2=Nc3ccccc3C3=NC(CCC(=O)NCc4cccs4)C(=O)N23)cc1 (stereo not drawn)", "TESTED_TARGET": "DeltatarO mutant", "survival (%)": 75}
{"MOLECULE": "O=C(COc1ccc(F)cc1)Nc1cccc(OCc2cc(=O)n3ccccc3n2)c1", "TESTED_TARGET": "DeltatarO mutant", "survival (%)": 102}
{"MOLECULE": "CCS(=O)(=O)N1CCc2cc(C(=O)NCc3ccc(Cl)cc3)ccc21", "TESTED_TARGET": "DeltatarO mutant", "survival (%)": 92}
{"MOLECULE": "COc1ccc(C(=O)Nc2ccc3oc(-c4cccnc4)nc3c2)cc1OC", "TESTED_TARGET": "DeltatarO mutant", "survival (%)": 62}
{"MOLECULE": "Cc1ccc2nc(COc3ccccc3NC(=O)c3ccc(F)cc3)cc(=O)n2c1", "TESTED_TARGET": "DeltatarO mutant", "survival (%)": 20}
{"MOLECULE": "Cc1nnc2c3ccccc3nc(N3CCN(c4ccccc4)CC3)n12", "TESTED_TARGET": "DeltatarO mutant", "survival (%)": 77}
{"MOLECULE": "CC(Oc1ccccc1F)C(=O)NCC1(N2CCOCC2)CCCCC1 (stereo not drawn)", "TESTED_TARGET": "DeltatarO mutant", "survival (%)": 61}
{"MOLECULE": "COC(=O)c1cc2sc(Cl)cc2n1Cc1c(C)cc(C)cc1C", "TESTED_TARGET": "DeltatarO mutant", "survival (%)": 98}
{"MOLECULE": "N#CCOc1nc(OCC#N)nc(OCC#N)n1", "TESTED_TARGET": "DeltatarO mutant", "survival (%)": 1}
{"MOLECULE": "CONc1nc(NC(C)(C)C)nc(OCC#N)n1", "TESTED_TARGET": "DeltatarO mutant", "survival (%)": 97}
{"MOLECULE": "Cc1ccc(S(=O)(=O)c2cn(CC(=O)Nc3ccc(C)c(Cl)c3)c3ccc(C)cc3c2=O)cc1", "TESTED_TARGET": "DeltatarO mutant", "survival (%)": 96}
{"MOLECULE": "CC(=O)c1ccc(NC(=O)/C=C/c2ccc(C)o2)cc1", "TESTED_TARGET": "DeltatarO mutant", "survival (%)": 48}
{"MOLECULE": "FC(F)(F)c1nnc2c3ccccc3c(Cl)nn12", "TESTED_TARGET": "DeltatarO mutant", "survival (%)": 95}
{"MOLECULE": "Cc1ccc(C2CCN(C(=O)c3cnn(-c4ccc(C)c(C)c4)c3C3CCN(C(=O)OC(C)(C)C)CC3)C2)cc1 (stereo not drawn)", "TESTED_TARGET": "DeltatarO mutant", "survival (%)": 90}
